TARGET_DESC: KIT (Homo sapiens)
Sequence (P10721 26-976): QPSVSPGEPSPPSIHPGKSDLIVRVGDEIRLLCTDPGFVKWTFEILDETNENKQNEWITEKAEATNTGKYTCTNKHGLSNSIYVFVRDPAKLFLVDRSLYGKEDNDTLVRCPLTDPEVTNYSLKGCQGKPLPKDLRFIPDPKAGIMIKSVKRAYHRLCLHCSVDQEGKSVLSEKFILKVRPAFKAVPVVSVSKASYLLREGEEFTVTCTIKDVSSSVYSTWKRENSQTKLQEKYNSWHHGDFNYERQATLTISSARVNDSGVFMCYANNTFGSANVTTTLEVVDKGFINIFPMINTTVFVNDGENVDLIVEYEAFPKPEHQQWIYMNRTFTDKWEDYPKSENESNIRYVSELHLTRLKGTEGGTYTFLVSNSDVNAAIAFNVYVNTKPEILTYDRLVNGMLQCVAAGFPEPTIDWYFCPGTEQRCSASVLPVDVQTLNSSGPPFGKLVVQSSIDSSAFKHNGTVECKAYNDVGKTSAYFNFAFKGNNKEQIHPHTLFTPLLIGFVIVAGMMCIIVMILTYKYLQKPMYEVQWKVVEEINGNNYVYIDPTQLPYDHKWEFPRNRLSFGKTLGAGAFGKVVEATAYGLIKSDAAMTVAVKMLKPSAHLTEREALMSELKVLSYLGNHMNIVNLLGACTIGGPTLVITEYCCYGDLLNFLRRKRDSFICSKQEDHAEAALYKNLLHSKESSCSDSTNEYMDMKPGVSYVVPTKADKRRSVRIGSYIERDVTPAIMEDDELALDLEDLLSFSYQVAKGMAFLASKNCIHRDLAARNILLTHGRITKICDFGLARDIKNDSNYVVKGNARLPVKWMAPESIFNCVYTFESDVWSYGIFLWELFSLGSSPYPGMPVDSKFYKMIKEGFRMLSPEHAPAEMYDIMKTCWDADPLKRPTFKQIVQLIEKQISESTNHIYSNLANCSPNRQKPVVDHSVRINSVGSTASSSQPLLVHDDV
READOUT_NAME: pKd
# pKd: negative log10 of molar concentration; output just the value

Query :: Lab note: record pKd of `COc1ccc(OC)c(-n2nnc(S(=O)(=O)c3ccc(C(C)(C)C)cc3)c2C)c1` tested on KIT (Homo sapiens).
Result :: 5.60
